Reference source for all entries: ChEMBL document CHEMBL5226346

Test system: HEK293
Assay: Selectivity ratio of Ki for displacement of [3H]-(R)-(+)7-OH-DPAT from human dopamine D2 receptor expressed in HEK293 cell membranes to Ki for displacement of [3H]-(R)-(+)7-OH-DPAT from human dopamine D3 receptor expressed in HEK293 cell membranes
Conditions: Cell membrane
attribute measured: Ratio Ki

C[C@H]1CO[C@@H](c2ccc(N)nc2)CN1C/C=C1\CCC(CNC(=O)c2cc3ccccc3[nH]2)C1 (mixture of isomers)
7.5

1. C[C@H]1CO[C@@H](c2ccc(N)nc2)CN1CCn1cc(CNC(=O)c2cc3ccccc3[nH]2)nn1
2. C[C@H]1CO[C@@H](c2ccc(N)nc2)CN1CC(=O)N1CCC(CNC(=O)c2cc3ccccc3[nH]2)C1 (some centres undefined)
Please choose the item with the lower Ratio Ki value from this pair: 1 and 2 // output: label of the selected item
2

====

Target: D(3) dopamine receptor (Homo sapiens, UniProt P35462)
Sequence (P35462 whole entry): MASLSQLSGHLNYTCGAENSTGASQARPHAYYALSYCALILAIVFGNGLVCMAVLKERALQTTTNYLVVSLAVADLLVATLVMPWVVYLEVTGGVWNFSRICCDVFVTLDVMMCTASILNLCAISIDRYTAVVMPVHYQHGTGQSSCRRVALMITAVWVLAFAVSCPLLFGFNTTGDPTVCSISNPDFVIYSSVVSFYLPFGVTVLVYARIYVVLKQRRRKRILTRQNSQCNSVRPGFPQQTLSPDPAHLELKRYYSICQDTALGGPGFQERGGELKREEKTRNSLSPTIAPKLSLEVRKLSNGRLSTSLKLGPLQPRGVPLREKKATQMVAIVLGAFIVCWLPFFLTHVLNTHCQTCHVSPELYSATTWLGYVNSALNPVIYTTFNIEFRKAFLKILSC
attribute measured: pKi
Here pKi is given on a logarithmic scale as minus log10 of the concentration in mol/L.

Form: item CN[C@@H]1Cc2cccc3[nH]c(=O)n(c23)C1 ; test system D(3) dopamine receptor (Homo sapiens, UniProt P35462); pKi: 6.11
